target: UniProt P14735; experiment: Protease assay with fluorogenic peptide substrate Mca-[…](Dnp)-OH; assay type: biochemical; parameters: recombinant human IDE42-1019 (R&D Systems); purchased R&D Systems
Sequence (P14735 42-1019): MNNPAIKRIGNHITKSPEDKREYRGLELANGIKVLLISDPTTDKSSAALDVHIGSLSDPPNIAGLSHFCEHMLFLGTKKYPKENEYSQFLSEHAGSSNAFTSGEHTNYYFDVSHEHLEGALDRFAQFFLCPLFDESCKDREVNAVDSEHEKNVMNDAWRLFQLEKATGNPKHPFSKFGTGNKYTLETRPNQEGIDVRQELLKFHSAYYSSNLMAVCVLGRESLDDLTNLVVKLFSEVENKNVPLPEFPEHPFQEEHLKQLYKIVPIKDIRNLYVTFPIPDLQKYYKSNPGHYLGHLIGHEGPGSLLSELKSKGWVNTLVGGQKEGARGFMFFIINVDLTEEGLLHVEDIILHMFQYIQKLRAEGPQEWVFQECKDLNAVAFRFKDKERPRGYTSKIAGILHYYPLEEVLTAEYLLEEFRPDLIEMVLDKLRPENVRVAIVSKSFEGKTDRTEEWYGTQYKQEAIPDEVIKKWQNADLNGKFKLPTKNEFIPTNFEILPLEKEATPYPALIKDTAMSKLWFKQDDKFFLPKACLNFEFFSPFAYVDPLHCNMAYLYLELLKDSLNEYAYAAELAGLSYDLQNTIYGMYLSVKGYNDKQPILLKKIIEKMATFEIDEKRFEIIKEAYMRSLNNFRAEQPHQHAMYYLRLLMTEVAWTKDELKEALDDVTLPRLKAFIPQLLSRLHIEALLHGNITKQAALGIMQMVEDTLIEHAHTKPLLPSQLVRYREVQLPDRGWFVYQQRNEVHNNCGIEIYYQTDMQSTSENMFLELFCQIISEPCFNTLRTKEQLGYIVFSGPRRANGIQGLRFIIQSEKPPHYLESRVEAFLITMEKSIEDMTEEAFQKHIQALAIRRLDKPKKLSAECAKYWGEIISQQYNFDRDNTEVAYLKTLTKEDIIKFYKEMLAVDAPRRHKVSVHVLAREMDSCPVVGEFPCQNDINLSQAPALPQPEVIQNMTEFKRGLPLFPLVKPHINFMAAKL
pIC50: −log10 of the molar value.

- molecule: "NC(=O)CCC1NC(=O)C=CC(=O)NC(C(N)=O)CCCCNC(=O)C(Cc2ccc(C(=O)c3ccccc3)cc2)NC(=O)C(CC2CCCCC2)NC1=O (stereo not shown) [Compound 6b]"
  pIC50: 7.22

Origin of values: patent US20160282364A1
